Listing of recorded pIC50 by entry.
biological target: Phosphatidylinositol 4,5-bisphosphate 3-kinase catalytic subunit beta isoform (Homo sapiens, UniProt P42338); assay: Inhibition of recombinant human full length His-tagged p110beta expressed in baculovirus expression system measured after 60 mins in presence of ATP by ATP-competitive binding assay
Sequence (P42338 whole entry, canonical isoform): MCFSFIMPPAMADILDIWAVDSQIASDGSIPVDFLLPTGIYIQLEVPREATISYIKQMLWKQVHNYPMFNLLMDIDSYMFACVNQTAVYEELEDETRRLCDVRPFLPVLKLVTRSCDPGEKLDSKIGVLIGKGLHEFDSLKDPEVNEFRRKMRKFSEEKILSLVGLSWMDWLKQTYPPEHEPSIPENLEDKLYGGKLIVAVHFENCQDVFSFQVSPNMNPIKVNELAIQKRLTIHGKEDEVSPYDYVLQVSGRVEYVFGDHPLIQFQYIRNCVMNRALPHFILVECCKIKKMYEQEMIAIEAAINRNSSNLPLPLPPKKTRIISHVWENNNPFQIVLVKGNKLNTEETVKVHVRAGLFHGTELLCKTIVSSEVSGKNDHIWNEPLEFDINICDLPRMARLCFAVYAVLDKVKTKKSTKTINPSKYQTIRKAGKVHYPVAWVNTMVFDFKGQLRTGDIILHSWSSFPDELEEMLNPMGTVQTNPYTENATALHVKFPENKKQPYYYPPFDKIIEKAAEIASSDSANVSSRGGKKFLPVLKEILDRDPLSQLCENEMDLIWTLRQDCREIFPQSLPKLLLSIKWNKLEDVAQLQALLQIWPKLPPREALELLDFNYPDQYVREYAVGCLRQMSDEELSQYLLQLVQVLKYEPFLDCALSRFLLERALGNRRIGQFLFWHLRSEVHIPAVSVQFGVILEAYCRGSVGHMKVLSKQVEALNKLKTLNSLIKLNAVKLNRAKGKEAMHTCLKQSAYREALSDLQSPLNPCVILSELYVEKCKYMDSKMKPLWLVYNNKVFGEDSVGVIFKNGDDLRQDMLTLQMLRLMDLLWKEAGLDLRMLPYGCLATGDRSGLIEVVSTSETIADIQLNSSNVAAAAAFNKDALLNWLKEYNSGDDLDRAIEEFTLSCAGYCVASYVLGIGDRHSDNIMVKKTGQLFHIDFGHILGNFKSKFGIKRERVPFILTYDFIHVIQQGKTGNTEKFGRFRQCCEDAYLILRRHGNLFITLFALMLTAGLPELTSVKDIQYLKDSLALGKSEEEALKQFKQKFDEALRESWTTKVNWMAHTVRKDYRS
pIC50 is defined as minus the log10 of a concentration measured in mol/L.

Some compounds with known pIC50 results, for comparison:
C[C@H](Nc1ncnc2nc[nH]c12)c1nc2cccc(F)c2c(=O)n1-c1ccccc1 6.84
O=c1c2cc(F)ccc2nc([C@@H](Nc2ncnc3nc[nH]c23)C2CC2)n1-c1ccccc1 6.70

Q) Annotate the compound O=c1c2c(Cl)cccc2nc([C@@H](Nc2ncnc3nc[nH]c23)C2CCC2)n1-c1ccccc1 with its measured pIC50.
A) 6.33

Q) Annotate the compound CC(C)[C@H](Nc1ncnc2nc[nH]c12)c1nc2cccc(F)c2c(=O)n1-c1ccccc1 with its measured pIC50.
A) 5.78

Q) Annotate the compound O=c1c2c(F)cccc2nc([C@@H](Nc2ncnc3nc[nH]c23)C2CCC2)n1-c1ccccc1 with its measured pIC50.
A) 6.07

---

system: SU-DHL-5; assay: Antiproliferative activity against human SU-DHL-5 cells assessed as cell viability at 10 uM by CellTiter-Glo luminescent cell viability assay (reference value: 100%); type: functional; details: read-out: Activity
Label t when viability at 10 µM is strictly below 40%; otherwise label f.

compound	assay.target	group.label
CCC[C@H](Nc1ncnc2nc[nH]c12)c1nc2cccc(Cl)c2c(=O)n1-c1ccccc1	SU-DHL-5	t
C[C@H](Nc1ncnc2nc[nH]c12)c1nc2cccc(F)c2c(=O)n1-c1ccccc1	SU-DHL-5	f
CC[C@H](Nc1ncnc2nc[nH]c12)c1nc2cccc(N)c2c(=O)n1-c1ccccc1	SU-DHL-5	f
CCC[C@H](Nc1ncnc2nc[nH]c12)c1nc2cccc(C(F)(F)F)c2c(=O)n1-c1ccccc1	SU-DHL-5	t

Q) Given the entry O=c1c2c(Cl)cccc2nc([C@@H](Nc2ncnc3nc[nH]c23)C2CCC2)n1-c1ccccc1 , would its reported viability at 10 µM be below 40%?
A) f

Q) Given the entry Nc1cccc2nc([C@@H](Nc3ncnc4nc[nH]c34)C3CC3)n(-c3ccccc3)c(=O)c12 , would its reported viability at 10 µM be below 40%?
A) t

Q) Given the entry CC[C@H](Nc1ncnc2[nH]cnc12)c1nc2cccc(F)c2c(=O)n1-c1ccccc1 [IDELALISIB] , would its reported viability at 10 µM be below 40%?
A) f

---

species: Homo sapiens; test: Selectivity ratio of IC50 for recombinant human full length His-tagged p110gamma expressed in baculovirus expression system to IC50 for recombinant human full length His-tagged p110delta/p85alpha expressed in baculovirus expression system
parameter.measured: Ratio IC50
Hey, just send me the number, nothing else.

C[C@H](Nc1ncnc2nc[nH]c12)c1nc2cccc(F)c2c(=O)n1-c1ccccc1 30.6

Kindly review the next molecule as well.
Q) Annotate the molecule O=c1c2cc(F)ccc2nc([C@@H](Nc2ncnc3nc[nH]c23)C2CC2)n1-c1ccccc1 with its measured Ratio IC50.
A) 26.8

---

test system: SU-DHL-5; experiment: Antiproliferative activity against human SU-DHL-5 cells assessed as cell viability at 10 uM by CellTiter-Glo luminescent cell viability assay (reference value: 100%); format: functional; details: read-out: Activity
Label 1.0 when viability at 10 µM is strictly below 30%; otherwise label 0.0.

C[C@H](Nc1ncnc2nc[nH]c12)c1nc2cccc(N)c2c(=O)n1-c1ccccc1 0.0

Q) Given the entry O=c1c2cc(F)ccc2nc([C@@H](Nc2ncnc3nc[nH]c23)C2CC2)n1-c1ccccc1 , would its reported viability at 10 µM be below 30%?
A) 1.0

Q) Given the entry Cc1cccc2nc([C@@H](Nc3ncnc4nc[nH]c34)C3CC3)n(-c3ccccc3)c(=O)c12 , would its reported viability at 10 µM be below 30%?
A) 1.0

Q) Given the entry CCC[C@H](Nc1ncnc2nc[nH]c12)c1nc2cccc(F)c2c(=O)n1-c1ccccc1 , would its reported viability at 10 µM be below 30%?
A) 0.0

Q) Given the entry O=c1c2c(F)cccc2nc([C@@H](Nc2ncnc3nc[nH]c23)C2CCC2)n1-c1ccccc1 , would its reported viability at 10 µM be below 30%?
A) 0.0

Q) Given the entry O=c1c2c(F)cccc2nc([C@@H](Nc2ncnc3nc[nH]c23)C2CC2)n1-c1ccccc1 , would its reported viability at 10 µM be below 30%?
A) 0.0

Q) Given the entry O=c1c2c(Cl)cccc2nc([C@@H](Nc2ncnc3nc[nH]c23)C2CC2)n1-c1ccccc1 , would its reported viability at 10 µM be below 30%?
A) 0.0

Q) Given the entry CC(C)[C@H](Nc1ncnc2nc[nH]c12)c1nc2cccc(F)c2c(=O)n1-c1ccccc1 , would its reported viability at 10 µM be below 30%?
A) 0.0
